Entries and their measured IC50 follow.
# System: LPS induced TNF release from monocytes
# experiment notes: Lipopolysaccharide-activated Monocyte TNF Production Assay
# Format: cell-based
# condition parameters: Homo sapiens, monocytes activated with LPS, TNF in supernatant by ELISA

{"smiles repr": "Cc1ccc(C(=O)NC2CC2)cc1-c1cc2cnnc(N3CCNC(=O)C3)c2s1", "tested system": "LPS induced TNF release from monocytes", "IC50": "≤ 5 µM"}
{"smiles repr": "Cc1ccc(C(=O)O)cc1-c1cc2cnc(NCCN3CCOCC3)nc2s1", "tested system": "LPS induced TNF release from monocytes", "IC50": "≤ 5 µM"}
{"smiles repr": "CCN(CC)CCCNc1ncc2cc(-c3cc(C(=O)NC4CC4)ccc3C)sc2n1", "tested system": "LPS induced TNF release from monocytes", "IC50": "≤ 5 µM"}
{"smiles repr": "CCNC(=O)c1ccc(C)c(-c2cc3cnc(NCCN4CCOCC4)nc3s2)c1", "tested system": "LPS induced TNF release from monocytes", "IC50": "≤ 5 µM"}
{"smiles repr": "Cc1ccc(C(N)=O)cc1-c1cc2cnnc(-c3ccc(F)cc3C)c2s1", "tested system": "LPS induced TNF release from monocytes", "IC50": "≤ 5 µM"}
